Where do these numbers come from? They come from paper PMC12040169.

Test: in vitro
Conditions: human, hela cells, % viability
reported.endpoint: viability at 28.5 h, 10 µM (%)

{"compound": "COc1ccc(OCc2nnn[nH]2)cc1", "experimental.value": 89.9}
{"compound": "Cc1ccc(C2=CCN(CC(=O)Nc3nc(C)c(C)s3)CC2)o1", "experimental.value": 99.1}
{"compound": "CC(=O)N1C[C@@H]2CCCCN(CCc3ccc(F)cc3)[C@@H]2C1", "experimental.value": 112}
{"compound": "Cc1cc(-c2ccc(=O)n(CCNC(=O)c3cccs3)n2)c(C)o1", "experimental.value": 92.3}
{"compound": "O=C(Nc1ccc(F)cc1)c1[nH]c2ccccc2c1NS(=O)(=O)c1cc(Cl)sc1Cl", "experimental.value": 95}
{"compound": "O=C(NCCCc1ccccn1)c1cc(-c2cccs2)no1", "experimental.value": 63.9}
{"compound": "COC(=O)c1csc(-c2ccc(Cl)cc2Cl)n1", "experimental.value": 103}
{"compound": "Cc1nc(CCNc2ccc(-c3nc(C)c(C)c(=O)[nH]3)cn2)cs1", "experimental.value": 107}
{"compound": "Cc1cc(C)c(NC(=O)C2CCCCN2C23CC4CC(CC(C4)C2)C3)c(C)c1 (stereo not drawn) [CBK261559C]", "experimental.value": 92.6}

###

viability at 28.5 h, 10 µM reference
Test: in vitro
Settings: human, hela cells, % viability

{"compound": "CC1=C[C@@H](CNS(C)(=O)=O)[C@H](C(C)C)C[C@H]1Cc1nnc(-c2ccccc2F)o1 [CBK289226]", "viability at 28.5 h, 10 µM [%]": 116}
{"compound": "Cc1cc(C(=O)CSc2ccc(Cl)nn2)c(C)n1C1CC1 [CBK305512]", "viability at 28.5 h, 10 µM [%]": 99.2}
{"compound": "COc1ccc(-c2c(C(F)(F)F)oc3c(CN4CC(C)OC(C)C4)c(O)ccc3c2=O)cc1OC (stereo not drawn) [CBK217829]", "viability at 28.5 h, 10 µM [%]": 100}
{"compound": "CC(=O)N1CC(C(=O)Nc2ncc(-c3ccccc3)n2C)C1 [CBK281373]", "viability at 28.5 h, 10 µM [%]": 96.1}
{"compound": "COCC(=O)N1CCc2sccc2C1c1ccc(NC(=O)c2ccco2)cc1 (stereo not drawn) [CBK286200]", "viability at 28.5 h, 10 µM [%]": 95.6}
{"compound": "CC(C#N)(NC(=O)COc1ncnc2sc3c(c12)CCC3)C1CC1 (stereo not drawn) [CBK306333]", "viability at 28.5 h, 10 µM [%]": 88.1}
{"compound": "CC(C)(O)C#Cc1ccc(C(=O)NCCC(=O)O)s1 [CBK267704]", "viability at 28.5 h, 10 µM [%]": 97.1}
{"compound": "NC(=O)c1cc2c(OCCCN3CCN(C(c4ccccc4)c4ccccc4)CC3)cccc2[nH]1 [CBK016544]", "viability at 28.5 h, 10 µM [%]": 96}
{"compound": "Cc1ccccc1-c1nnc(-c2ccc(C(=O)N=c3sccn3C)cc2)o1 [CBK298283]", "viability at 28.5 h, 10 µM [%]": 97.1}

###

viability at 28.5 h, 10 µM reference
Assay: in vitro
Settings: human, hela cells, % viability
reported.endpoint: viability at 28.5 h, 10 µM (%)

{"molecule": "O=C(O)c1nccnc1C(=O)NCCc1c[nH]c2ccc(Cl)cc12", "reported.endpoint": "viability at 28.5 h, 10 µM", "measurement.units": "%", "experimental.value": 93.8}
{"molecule": "COc1ccccc1Oc1ccc([N+](=O)[O-])cc1F", "reported.endpoint": "viability at 28.5 h, 10 µM", "measurement.units": "%", "experimental.value": 90.8}
{"molecule": "CCCCNC(=O)NC(=O)C1CCN(CCCOc2ccccc2)CC1", "reported.endpoint": "viability at 28.5 h, 10 µM", "measurement.units": "%", "experimental.value": 110}
{"molecule": "CC(=O)c1cc2c(cc1NC(=O)CSc1ccccn1)OCO2", "reported.endpoint": "viability at 28.5 h, 10 µM", "measurement.units": "%", "experimental.value": 94.2}
{"molecule": "O=[N+]([O-])c1ccc(CN2CCN(Cc3ccc4c(c3)OCO4)CC2)o1", "reported.endpoint": "viability at 28.5 h, 10 µM", "measurement.units": "%", "experimental.value": 88.7}
{"molecule": "CC(=O)N1CCc2c(sc(NC(=O)c3ccc(N(C)C)cc3)c2C#N)C1", "reported.endpoint": "viability at 28.5 h, 10 µM", "measurement.units": "%", "experimental.value": 94.7}
{"molecule": "CCCc1oc(C(=O)O)cc1CN1CCCCC1 [CBK267973C]", "reported.endpoint": "viability at 28.5 h, 10 µM", "measurement.units": "%", "experimental.value": 99}
{"molecule": "COc1ccc(CC(=O)N2CCC(Cc3cccc(-c4cccs4)c3)(C(N)=O)CC2)cc1", "reported.endpoint": "viability at 28.5 h, 10 µM", "measurement.units": "%", "experimental.value": 93.2}
{"molecule": "O=C(CNC(=O)c1ccccc1)N/N=C/c1ccc(Br)cc1", "reported.endpoint": "viability at 28.5 h, 10 µM", "measurement.units": "%", "experimental.value": 103}
{"molecule": "NS(=O)(=O)c1cc(C(=O)OCCNC(=O)c2ccccc2)c(Cl)cc1Cl", "reported.endpoint": "viability at 28.5 h, 10 µM", "measurement.units": "%", "experimental.value": 88.9}
{"molecule": "Cc1ccc(CN(C)C(C)C(=O)NCc2cccs2)cc1 (stereo not shown)", "reported.endpoint": "viability at 28.5 h, 10 µM", "measurement.units": "%", "experimental.value": 103}
{"molecule": "CCOc1ccc(Cl)cc1CN(C)C(=O)NC(c1ncnn1C)C(C)C (stereo not shown)", "reported.endpoint": "viability at 28.5 h, 10 µM", "measurement.units": "%", "experimental.value": 80.5}
{"molecule": "Cc1ccccc1NC(=O)c1cnc2n(c1=O)CCS2", "reported.endpoint": "viability at 28.5 h, 10 µM", "measurement.units": "%", "experimental.value": 110}
{"molecule": "O=C(O)C1CCCN(C(=O)NCC2COc3ccccc3O2)C1 (stereo not shown)", "reported.endpoint": "viability at 28.5 h, 10 µM", "measurement.units": "%", "experimental.value": 121}
{"molecule": "CCc1nnc(SCc2cccc(C(=O)O)c2)o1", "reported.endpoint": "viability at 28.5 h, 10 µM", "measurement.units": "%", "experimental.value": 95.7}
{"molecule": "COc1ccc(C(C)C)cc1-c1cncc(N2CCCCC2CCO)n1 (stereo not shown)", "reported.endpoint": "viability at 28.5 h, 10 µM", "measurement.units": "%", "experimental.value": 94.4}
{"molecule": "CCn1cc(NC(=O)NC2CCN(c3ncccc3C#N)CC2)c(C)n1", "reported.endpoint": "viability at 28.5 h, 10 µM", "measurement.units": "%", "experimental.value": 93.1}
{"molecule": "CC(C)Nc1cc(OC2CCOC2)ncn1 (stereo not shown)", "reported.endpoint": "viability at 28.5 h, 10 µM", "measurement.units": "%", "experimental.value": 93.4}
{"molecule": "CCN1CC2(CCN(Cc3ncc[nH]3)CC2)c2ccccc21", "reported.endpoint": "viability at 28.5 h, 10 µM", "measurement.units": "%", "experimental.value": 89.1}
{"molecule": "COc1cccc2c3c([nH]c12)C1(CCN(CCOc2ccccc2)CC1)N(C=O)CC3", "reported.endpoint": "viability at 28.5 h, 10 µM", "measurement.units": "%", "experimental.value": 112}
{"molecule": "Cc1cc(CN2CCN(C(=O)NCc3cccnc3)CC2)on1", "reported.endpoint": "viability at 28.5 h, 10 µM", "measurement.units": "%", "experimental.value": 114}
{"molecule": "COc1ccc(-c2cncc(N(C)CCN(C)C)n2)cc1", "reported.endpoint": "viability at 28.5 h, 10 µM", "measurement.units": "%", "experimental.value": 101}
{"molecule": "O=C(CN1CCC(c2ccc(F)cc2)CC1)N1CCOCC1", "reported.endpoint": "viability at 28.5 h, 10 µM", "measurement.units": "%", "experimental.value": 88.4}
{"molecule": "Cc1ccc(CC(=O)N2CCC(Cc3ccccc3-c3ccccc3C)(C(N)=O)CC2)cc1", "reported.endpoint": "viability at 28.5 h, 10 µM", "measurement.units": "%", "experimental.value": 98.2}
{"molecule": "COC(=O)c1c(N=C(S)Nc2ccc(CC(=O)O)cc2)sc(C)c1C", "reported.endpoint": "viability at 28.5 h, 10 µM", "measurement.units": "%", "experimental.value": 96.4}
{"molecule": "COc1ccc2cc(OCCO)ccc2c1", "reported.endpoint": "viability at 28.5 h, 10 µM", "measurement.units": "%", "experimental.value": 63.6}
{"molecule": "O=C(O)COc1ccc(Br)cc1/C=C\\c1nc(O)c([N+](=O)[O-])c(=O)[nH]1", "reported.endpoint": "viability at 28.5 h, 10 µM", "measurement.units": "%", "experimental.value": 88.5}
{"molecule": "Cc1nc(C)c(C(=O)N2CCC(c3cc4cccnc4[nH]3)CC2)s1", "reported.endpoint": "viability at 28.5 h, 10 µM", "measurement.units": "%", "experimental.value": 88.5}
{"molecule": "Cc1cnc(CNC(=O)c2ccc(-c3ccoc3)nc2)cn1", "reported.endpoint": "viability at 28.5 h, 10 µM", "measurement.units": "%", "experimental.value": 109}
{"molecule": "CCOC(=O)c1sc(Sc2nnc(C(F)(F)F)n2C)c2c1CC(C)(C)CC2=O", "reported.endpoint": "viability at 28.5 h, 10 µM", "measurement.units": "%", "experimental.value": 101}
{"molecule": "CCC#CC(=O)Nc1cncc(OC2CCNCC2)n1 [CBK026731T]", "reported.endpoint": "viability at 28.5 h, 10 µM", "measurement.units": "%", "experimental.value": 93}
{"molecule": "CO[C@H]1CN(C)C[C@@H]1NC(=O)c1cccc2c1NCCC2", "reported.endpoint": "viability at 28.5 h, 10 µM", "measurement.units": "%", "experimental.value": 106}
{"molecule": "CC(NC(=O)Cc1ccc(-c2ccccc2)cc1)c1cccnc1 (stereo not shown)", "reported.endpoint": "viability at 28.5 h, 10 µM", "measurement.units": "%", "experimental.value": 95}
{"molecule": "COC(=O)c1cc(C)nc2sc(C)c(N)c12", "reported.endpoint": "viability at 28.5 h, 10 µM", "measurement.units": "%", "experimental.value": 85.8}
{"molecule": "Cc1nnc(CN2CCOC(c3nc(C(C)(C)C)cs3)C2)n1C (stereo not shown)", "reported.endpoint": "viability at 28.5 h, 10 µM", "measurement.units": "%", "experimental.value": 93.1}
{"molecule": "O=S(=O)(c1cnc(Cl)c(Br)c1)N1CCC2(CC1)OCCO2", "reported.endpoint": "viability at 28.5 h, 10 µM", "measurement.units": "%", "experimental.value": 97.5}
{"molecule": "Cc1cc(=O)n(CC(=O)N2CCC3(CCCN(C(C)C)C3=O)C2)nc1C (stereo not shown)", "reported.endpoint": "viability at 28.5 h, 10 µM", "measurement.units": "%", "experimental.value": 90}
{"molecule": "O=c1n(CC2CCCCC2)c2ccccc2n1S(=O)(=O)CCc1cccc2ccccc12", "reported.endpoint": "viability at 28.5 h, 10 µM", "measurement.units": "%", "experimental.value": 101}
{"molecule": "COCCC(=O)N1C2CCC(C2)[C@@H]1COc1ccc(F)cc1 (stereo partly shown)", "reported.endpoint": "viability at 28.5 h, 10 µM", "measurement.units": "%", "experimental.value": 96}
{"molecule": "c1ccc2oc(-c3cncc(NCCCN4CCOCC4)n3)cc2c1", "reported.endpoint": "viability at 28.5 h, 10 µM", "measurement.units": "%", "experimental.value": 92.9}
